Assign fold slower dissociation rate to each entry below.
Target: T1, integrin αVβ3 (human, UniProt P06756 31-1048; P05106 27-788)
T1 construct: mature; biotinylated in capture lift and capture ELISA; also on M21 melanoma cells in some assays; also called vitronectin receptor; αVβ3 receptor
T1 sequence (P06756 31-1048, chain 1 of 2): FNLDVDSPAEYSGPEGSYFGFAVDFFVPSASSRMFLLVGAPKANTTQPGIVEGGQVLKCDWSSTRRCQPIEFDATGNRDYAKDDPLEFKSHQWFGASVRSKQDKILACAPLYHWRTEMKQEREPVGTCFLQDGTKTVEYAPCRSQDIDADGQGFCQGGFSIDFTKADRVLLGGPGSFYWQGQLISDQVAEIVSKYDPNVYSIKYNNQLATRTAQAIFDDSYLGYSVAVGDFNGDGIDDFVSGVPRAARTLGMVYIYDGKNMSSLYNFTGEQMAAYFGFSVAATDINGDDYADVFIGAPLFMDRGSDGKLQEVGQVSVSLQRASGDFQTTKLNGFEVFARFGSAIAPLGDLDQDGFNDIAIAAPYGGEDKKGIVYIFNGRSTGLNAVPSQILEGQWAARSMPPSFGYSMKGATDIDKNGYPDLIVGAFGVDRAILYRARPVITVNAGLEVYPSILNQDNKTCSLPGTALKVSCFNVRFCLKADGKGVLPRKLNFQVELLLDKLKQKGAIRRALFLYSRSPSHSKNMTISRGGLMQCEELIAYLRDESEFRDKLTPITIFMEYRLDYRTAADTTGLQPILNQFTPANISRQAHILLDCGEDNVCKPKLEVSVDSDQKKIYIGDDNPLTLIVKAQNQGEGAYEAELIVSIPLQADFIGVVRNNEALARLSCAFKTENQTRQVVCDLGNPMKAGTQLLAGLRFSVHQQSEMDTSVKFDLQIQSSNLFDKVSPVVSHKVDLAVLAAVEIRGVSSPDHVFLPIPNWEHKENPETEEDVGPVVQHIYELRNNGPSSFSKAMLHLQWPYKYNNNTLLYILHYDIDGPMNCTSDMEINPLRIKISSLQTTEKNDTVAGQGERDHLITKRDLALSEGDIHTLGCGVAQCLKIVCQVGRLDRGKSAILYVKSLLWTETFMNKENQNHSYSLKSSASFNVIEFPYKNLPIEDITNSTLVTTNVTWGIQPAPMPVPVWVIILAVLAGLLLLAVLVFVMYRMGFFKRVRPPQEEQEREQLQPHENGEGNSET
T1 sequence (P05106 27-788, chain 2 of 2): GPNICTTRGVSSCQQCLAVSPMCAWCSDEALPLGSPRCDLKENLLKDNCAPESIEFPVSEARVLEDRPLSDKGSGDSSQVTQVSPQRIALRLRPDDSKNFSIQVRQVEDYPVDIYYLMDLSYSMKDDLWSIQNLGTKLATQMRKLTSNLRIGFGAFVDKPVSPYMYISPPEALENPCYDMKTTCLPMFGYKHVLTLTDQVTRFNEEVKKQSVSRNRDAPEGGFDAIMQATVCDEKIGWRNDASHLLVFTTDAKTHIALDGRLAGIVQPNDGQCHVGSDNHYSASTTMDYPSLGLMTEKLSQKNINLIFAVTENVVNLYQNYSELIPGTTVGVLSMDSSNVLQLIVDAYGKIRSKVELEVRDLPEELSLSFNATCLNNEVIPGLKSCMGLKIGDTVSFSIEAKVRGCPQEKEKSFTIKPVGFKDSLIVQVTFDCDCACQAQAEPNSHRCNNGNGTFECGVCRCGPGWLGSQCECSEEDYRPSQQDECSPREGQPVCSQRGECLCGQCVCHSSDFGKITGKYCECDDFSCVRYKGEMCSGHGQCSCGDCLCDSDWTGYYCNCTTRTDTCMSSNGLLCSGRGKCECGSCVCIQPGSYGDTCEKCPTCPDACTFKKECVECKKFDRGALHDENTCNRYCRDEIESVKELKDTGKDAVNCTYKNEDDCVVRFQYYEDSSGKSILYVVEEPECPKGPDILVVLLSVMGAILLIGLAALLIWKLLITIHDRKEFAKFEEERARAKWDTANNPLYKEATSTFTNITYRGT
Assay: SPR (BIAcore)

Recorded fold slower dissociation rate for LM609 grafted antibody combinatorial clone 6G1 (Fab, V domains shown, Fab) VH: QVQLVESGGGVVQPGRSLRLSCAASGFTFSSYDMSWVRQAPGKGLEWVAKVSSGGGSTYYPDTVQGRFTISRDNSKNTLYLQMNSLRAEDTAVYYCARHNYGSFASWGQGTTVTVSS VL: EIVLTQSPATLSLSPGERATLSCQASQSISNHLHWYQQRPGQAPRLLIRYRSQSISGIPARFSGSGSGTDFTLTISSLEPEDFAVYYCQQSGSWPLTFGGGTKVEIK , please?
> 10 fold

Item: LM609 grafted antibody combinatorial clone C119 (Fab, V domains shown, Fab) VH: QVQLVESGGGVVQPGRSLRLSCAASGFTFSSYDMSWVRQAPGKGLEWVAKVSSGGGSTYYPDTVQGRFTISRDNSKNTLYLQMNSLRAEDTAVYYCARHNYGSFASWGQGTTVTVSS VL: EIVLTQSPATLSLSPGERATLSCQASQSISNHLHWYQQRPGQAPRLLIRYRSQSISGIPARFSGSGSGTDFTLTISSLEPEDFAVYYCQQSNSWPHTFGGGTKVEIK
> 10 fold

Do the same for LM609 grafted antibody combinatorial clone 56 (Fab, V domains shown, Fab) VH: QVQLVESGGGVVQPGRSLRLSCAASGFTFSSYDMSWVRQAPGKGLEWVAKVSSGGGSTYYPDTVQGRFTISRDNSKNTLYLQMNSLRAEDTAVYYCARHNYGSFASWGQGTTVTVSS VL: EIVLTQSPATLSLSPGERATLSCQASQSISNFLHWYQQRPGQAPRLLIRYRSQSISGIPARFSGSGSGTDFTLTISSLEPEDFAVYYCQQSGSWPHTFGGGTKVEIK please
> 10 fold
